# Test system: RAW264.7
# experiment description: Cytotoxicity against LPS-stimulated mouse RAW264.7 cells assessed as cell viability at 50 uM after 24 hrs by MTT assay
# Assay type: cell-based
# measurement setup: raw264.7, 24 h

molecule	target	Activity
CCCCOC(=O)CC[C@@H](C)[C@H]1CC(=O)[C@@]2(C)C3=C(C(=O)[C@@H](OC(C)=O)[C@]12C)[C@@]1(C)CC[C@H](O)C(C)(C)[C@@H]1C[C@@H]3O [BUTYL LUCIDENATE P]	RAW264.7	Non-toxic
CC(C)[C@@H](C)/C=C/[C@@H](C)[C@H]1CC[C@H]2C3=CC=C4C[C@@H](O)CC[C@]4(C)[C@H]3CC[C@]12C [ERGOSTEROL]	RAW264.7	Non-toxic
COC(=O)CC[C@@H](C)[C@H]1CC(=O)[C@@]2(C)C3=C(C(=O)C[C@]12C)[C@@]1(C)CCC(=O)C(C)(C)[C@@H]1C[C@@H]3O [METHYL LUCIDENATE A]	RAW264.7	Non-toxic

====

# System: RAW264.7
# experiment description: Cytotoxicity against mouse RAW264.7 cells assessed as cell viability at 50 uM after 24 hrs by MTT assay
# Assay type: cell-based
# measurement setup: mouse, raw264.7, 24 h, 50 µM

compound	Activity
C[C@H](CCC=C(CO)CO)[C@H]1CC[C@@]2(C)C3=CC[C@H]4C(C)(C)C(=O)CC[C@]4(C)C3=CC[C@]12C	Non-toxic
COC(=O)C(C)CC(=O)C[C@@H](C)[C@H]1C[C@H](O)[C@@]2(C)C3=C(C(=O)C[C@]12C)[C@@]1(C)CCC(=O)C(C)(C)[C@@H]1CC3=O (stereo partly drawn) [METHYL GANODERATE J]	Non-toxic
CCCCOC(=O)CC[C@@H](C)[C@H]1CC(=O)[C@@]2(C)C3=C(C(=O)[C@@H](OC(C)=O)[C@]12C)[C@@]1(C)CC[C@H](O)C(C)(C)[C@@H]1C[C@@H]3O [BUTYL LUCIDENATE P]	Non-toxic
